Field: TGI. Provide a value for each of the compounds that follow.
test system: TK-10 renal; experiment: NCI tumour cell line growth inhibition, 48 h

Q: Field request: TGI | item: CON1C(=O)C2(CCCCC2)C(=O)C12C=CC(C)CC2 (stereo not given)
Ans: > 100 µM

Q: Further, for Cn1cc(-c2ncnc3ccc(-c4cnc(Cl)c(NS(C)(=O)=O)c4)cc23)c2ccccc21 ?
Ans: 10.6 µM

Q: Further, for C=C[C@@H]1CCC/C=C/[C@@H]2C[C@H](O)C[C@H]2[C@H](O)/C=C/C(=O)O1 ?
Ans: 19.8 µM

Q: Further, for CCOC(=O)NC(=O)c1cn(C2CCCCC2)c(=O)n(C)c1=O ?
Ans: > 100 µM

Q: Further, for COc1cc(/C=C2\C(=O)Nc3ccc(Cl)cc32)cc(OC)c1OC ?
Ans: 78.3 µM

Q: Further, for Cc1ccccc1SC(/C=C/NNC1=NC(c2ccccc2)C(c2ccccc2)=NN1)c1ccccc1 (stereo not given) ?
Ans: 43.2 µM

Q: Further, for COc1ccc(NC(=O)c2ccc(C(F)(F)F)nc2Nc2ccc(Cl)cc2C)cc1Cl ?
Ans: 41.6 µM

Q: Further, for CC(=O)OC(OC(C)=O)c1c2ccccc2cc2ccccc12 ?
Ans: 61.2 µM

Q: Further, for CC[C@@]1(O)C(=O)OCc2c1cc1n(c2=O)Cc2c-1nc1ccccc1c2/C=N\NC(=O)C(N)Cc1ccc(O)cc1 (stereo not given in full) ?
Ans: > 31.6 µM

Q: Further, for C=C(C)[C@@]12C[C@H](OC(=O)[C@H](O)[C@@H](NC(=O)c3ccccc3)c3ccccc3)C(C)=C1[C@@H](OC(C)=O)C(=O)[C@@]1(C)C([C@@H]2OC(=O)c2cc(F)cc(F)c2)C2(OC(C)=O)CO[C@@H]2C[C@@H]1O (stereo not given in full) ?
Ans: 9.66 µM
